Each entry below carries its recorded thermal shift delta Tm.
Test system: LOC_OS05G16824-cb004
Assay: thermal shift delta Tm vs DMSO control; higher = stronger stabilization (binding);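 note: purified Escherichia coli-expressed rice kinase domain construct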
Conditions: 12.5 µM; protein concentration 2 µM
# answer = value followed by unit

1. COc1ccc(S(=O)(=O)N(CCO)c2ccccc2CN(C)C/C=C/c2ccc(Cl)cc2)cc1 [KN-93 Phosphate]: 1.97 °C

## Task Quick one: thermal shift delta Tm of Fc1ccc2[nH]ccc2c1-c1nc(N2CCOCC2)c2sc(CN3CCN(CC4CC4)CC3)cc2n1 ?
## Result -1.52 °C

## Task Quick one: Cc1nc(-c2cn3c(n2)-c2ccc(-c4cnn(C(C)(C)C(N)=O)c4)cc2OCC3)n(C(C)C)n1
## Result 0.74 °C

## Task Quick one: COc1ccc(-c2ccc3c(N4CCOC[C@@H]4C)nc(N4CCOC[C@@H]4C)nc3n2)cc1CO
## Result -7.62 °C

## Task Quick one: N#Cc1c(Oc2ccc(F)c(NC(=O)Cc3cccc(C(F)(F)F)c3)c2)ccc2nc(NC(=O)C3CC3)sc12
## Result -2.82 °C

## Task Quick one: C[C@@H]1COCCN1c1cc(=O)n2c(n1)N(Cc1cncc(Cl)c1)[C@H](C(F)(F)F)CC2
## Result -0.52 °C

## Task Quick one: COc1ccc(CC(=O)Nc2nc3c(s2)CCc2ccccc2-3)cc1OC
## Result 2.09 °C

## Task Quick one: COc1cc2ncnc(Oc3ccc(CC(=O)Nc4cnn(C(C)C)c4)cc3)c2cc1OC
## Result 0.86 °C

---

Each entry below carries its recorded thermal shift delta Tm.
System: LOC_OS06G16330-cb003
Sequence (as listed by the source): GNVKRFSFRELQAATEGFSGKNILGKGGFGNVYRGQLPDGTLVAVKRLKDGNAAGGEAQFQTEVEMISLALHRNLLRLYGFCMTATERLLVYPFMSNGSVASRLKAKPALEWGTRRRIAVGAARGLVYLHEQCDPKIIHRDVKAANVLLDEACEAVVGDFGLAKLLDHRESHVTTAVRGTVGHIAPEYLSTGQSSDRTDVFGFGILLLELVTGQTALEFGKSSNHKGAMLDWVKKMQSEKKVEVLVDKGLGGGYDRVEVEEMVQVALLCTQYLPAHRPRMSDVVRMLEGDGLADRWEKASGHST
Test: thermal shift delta Tm vs DMSO control; higher = stronger stabilization (binding)
Details: 12.5 µM; protein concentration 2 µM
Write the value in °C as a bare number.

Reference set (3 entries):
1) CN1CCN(C2CCN(C(=O)Nc3cc(Oc4ccc(NC(=O)C5(C(=O)Nc6ccc(F)cc6)CC5)c(F)c4)ccn3)CC2)CC1 [Golvatinib (E7050)]: 2.41
2) O=C(c1ccc(/C=C/c2n[nH]c3ccccc23)cc1)N1CCNCC1: 7.34
3) COc1ccc(S(=O)(=O)N(C(C)=O)c2ccccc2/C=C/c2cc[n+]([O-])cc2)cc1: 0.41

# ---- query molecule ----
## Task Quick one: thermal shift delta Tm of CCN(CC)CCCCNc1ncc2cc(-c3cc(OC)cc(OC)c3)c(NC(=O)NC(C)(C)C)nc2n1 ?
## Result -0.04

---

Tested on: LOC_OS03G12390-cb001
Experiment: thermal shift delta Tm vs DMSO control; higher = stronger stabilization (binding)
Details: 12.5 µM; protein concentration 2 µM
Each entry below carries its recorded thermal shift delta Tm.
Write the value in °C as a bare number.

## Task Quick one: thermal shift delta Tm of CCCCCCCCCCCCCCCCOP(=O)([O-])OCC[N+](C)(C)C [Miltefosine] ?
## Result -3.65

## Task Quick one: CN1CC(O)C2=C/C(=N/NC(N)=O)C(=O)C=C21 (configuration not stated) [Carbazochrome]
## Result 0.05

## Task Quick one: COc1ccc(-c2ccc3c(N4CCOC[C@@H]4C)nc(N4CCOC[C@@H]4C)nc3n2)cc1CO
## Result -0.12

## Task Quick one: COc1ccc(Cl)cc1NC(=O)Nc1cc(C)nc2ccccc12
## Result 0.21

## Task Quick one: O=C1Nc2ccccc2/C1=C1/Nc2ccccc2C1=O [Indirubin]
## Result 0.59

## Task Quick one: N#Cc1c(O)c2c(-c3ccc(-c4ccccc4O)cc3)csc2[nH]c1=O
## Result 0.75

Attribution: the supplement of paper PMC9694430
